Molecular target: Neu5Ac(a2-6)Gal(b1-4)Glc
Assay: glycan array binding signal (z-score within array); higher = stronger binding
Conditions: glycan notation: IUPAC condensed, linker removed
Shown is part of a subset that was picked to be rich in the strongest signals.
attribute-measured: glycan array binding signal (z-score)
Write the number on its own, no unit after it.

Below: 2 binders and their reported glycan array binding signal (z-score).
binder	glycan array binding signal (z-score)
Eosinophil cationic protein (ECP) (Homo sapiens), P12724 (protein) MVPKLFTSQICLLLLLGLMGVEGSLHARPPQFTRAQWFAIQHISLNPPRCTIAMRAINNYRWRCKNQNTFLRTTFANVVNVCGNQSIRCPHNRTLNNCHRSRFRVPLLHCDLINPGAQNISNCTYADRPGRRFYVVACDNRDPRDSPRYPVVPVHLDTTI	0.151
MSMEG3662-2a (Mycobacterium smegmatis), A0QYH7_MYCS2 (protein) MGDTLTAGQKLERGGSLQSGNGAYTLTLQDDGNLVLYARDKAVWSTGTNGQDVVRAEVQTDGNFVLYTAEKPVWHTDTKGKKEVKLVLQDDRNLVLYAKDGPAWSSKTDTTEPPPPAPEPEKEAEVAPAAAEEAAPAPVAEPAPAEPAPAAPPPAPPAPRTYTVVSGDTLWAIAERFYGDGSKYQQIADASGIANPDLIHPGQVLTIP	-0.068

Input: Identify the reported glycan array binding signal (z-score) for the following entry. Gal 10 (Homo sapiens), Q05315 (protein) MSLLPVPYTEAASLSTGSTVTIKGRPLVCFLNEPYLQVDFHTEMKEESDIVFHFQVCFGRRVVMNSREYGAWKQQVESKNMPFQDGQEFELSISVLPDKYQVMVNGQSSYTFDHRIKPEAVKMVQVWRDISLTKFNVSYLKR
Output: -0.381

The values you see were collected from the supplement of paper PMC8728848.
